tested on: HCT-116; test: Cytotoxicity against human HCT116 cells after 5 days by MTS assay; format: functional, cell-based; conditions: HCT-116, 120 h
Below, each entry is listed alongside its reported IC50.
# value in nM; strip the unit string

Below, each entry is followed by its recorded IC50 result.
{"columns": ["MOLECULE", "TEST TARGET", "RECORDED METRIC", "OUTPUT UNIT", "VAL"],
 "data": [
  ["Cn1cc(Nc2ncc3cnn([C@@H]4C[C@H]5C[C@H]5C4)c3n2)cc1C(=O)N1CCC[C@@H]1CN1CCOCC1", "HCT-116", "IC50", "nM", 24],
  ["Cn1cc(Nc2ncc3cnn(C4CCC(C)(C)CC4)c3n2)cc1C(N)=O", "HCT-116", "IC50", "nM", 100],
  ["Cn1cc(Nc2ncc3cnn([C@@H]4C[C@H]5C[C@H]5C4)c3n2)cc1C(=O)N1CCC[C@H]1CN1CCOCC1", "HCT-116", "IC50", "nM", 8]
]}

We now examine a further molecule.
stdin: Query (molecule): CN(C)C(=O)[C@@H]1CCCN1C(=O)c1cc(Nc2ncc3cnn([C@@H]4C[C@H]5C[C@H]5C4)c3n2)cn1C ; field requested: IC50
stdout: 160
